# Test Name: Confirmatory qHTS to identify inhibitors of SARS-CoV-2 cell entry (AID 1645844); note: nearly all actives have a fitted effect of over 45% in size
# Assay Setup: SARS-CoV-2 pseudotyped particle cell entry, luciferase; series mostly up to 57.2 µM
Results filed as inconclusive are left out. Calls of active or inactive are those of the source. Calls come from the whole dose curve.
Labels: 1 (yes) = active, 0 (no) = inactive

| Molecule | Category Label |
| --- | --- |
| Cc1c(C)c2c(c(C)c1O)CCC(C)(COc1ccc(CC3SC(=O)NC3=O)cc1)O2 (centres undefined) | 1 (yes) |
| Nc1ccn([C@@H]2O[C@H](CO)[C@@H](O)C2O)c(=O)n1 (some centres undefined) | 1 (yes) |
| Cc1cc2c(cc1CC(=O)c1sccc1S(=O)(=O)Nc1onc(C)c1Cl)OCO2 | 0 (no) |
| CCCCCCNC(=O)n1cc(F)c(=O)[nH]c1=O | 1 (yes) |
| Cc1nc2ccc(CN(C)c3ccc(C(=O)N[C@@H](CCC(=O)O)C(=O)O)s3)cc2c(=O)[nH]1 | 1 (yes) |
| COc1cccc2c1C(=O)c1c(O)c3c(c(O)c1C2=O)C[C@@](O)(C(=O)CO)C[C@@H]3O[C@H]1C[C@H](N)[C@@H](O)[C@H](C)O1 | 1 (yes) |
| COc1cccc2c1C(=O)c1c(O)c3c(c(O)c1C2=O)C[C@@](O)(C(=O)CO)CC3OC1CC(N2CCOC(OC)C2)C(O)C(C)O1 (some centres undefined) | 1 (yes) |
| CC(C)c1cccc(C(C)C)c1O | 0 (no) |
| CN1[C@@H]2CC[C@H]1CC(OC(c1ccccc1)c1ccccc1)C2 (some centres undefined) | 1 (yes) |
| CC(C)OC(=O)OCOP(=O)(CO[C@H](C)Cn1cnc2c(N)ncnc21)OCOC(=O)OC(C)C | 1 (yes) |
| Nc1nc2[nH]cc(CCc3ccc(C(=O)N[C@@H](CCC(=O)O)C(=O)O)cc3)c2c(=O)[nH]1 | 1 (yes) |
| O=C1CN(/N=C/c2ccc([N+](=O)[O-])o2)C(=O)N1 | 1 (yes) |
| CNCCC=C1c2ccccc2CCc2ccccc21 | 1 (yes) |
| Cc1cc(NS(=O)(=O)c2ccc(N)cc2)nc(C)n1 | 0 (no) |

* * *

# Test Name: qHTS for Inhibitors of the Functional Ribonucleoprotein Complex (vRNP) of Lymphocytic Choriomeningitis Arenaviruses (LCMV): Viability assay - alamar blue signal for LCMV Primary Screen (AID 1347085); note: nearly all actives have a fitted effect of over 80% in size
# Assay Setup: alamar blue viability counter-screen, LCMV vRNP screen cells; series mostly up to 57.5 µM
Results filed as inconclusive are left out. Active and inactive are the calls of the source. Calls follow the shape of the full dose curve; tested in HEK293 reporter line.
Labels: 1 (yes) = active, 0 (no) = inactive

| Compound | Category Label |
| --- | --- |
| O=C1NCC2(CCN(CCc3ccccc3)CC2)O1 | 0 (no) |
| C#CCC(Cc1cnc2nc(N)nc(N)c2n1)c1ccc(C(=O)N[C@@H](CCC(=O)O)C(=O)O)cc1 (some centres not stated) | 1 (yes) |
| O=C(NCCO[N+](=O)[O-])c1cccnc1 | 0 (no) |
| NC(=O)N[C@@H](CCC(=O)O)C(=O)O | 0 (no) |
| Nc1ccc(C(=O)Oc2ccccc2)c(O)c1 | 0 (no) |
| O=C(O)CCCC[C@@H]1SC[C@@H]2NC(=O)N[C@@H]21 | 0 (no) |
| COc1cc(OC)c(OC)cc1C=O | 0 (no) |
| CC(C(=O)O)c1cccc(Oc2ccccc2)c1 (configuration not stated) | 0 (no) |
| COP(=O)(OC)OC(c1ccc(Cl)cc1)P(=O)(OC)OC (configuration not stated) | 0 (no) |
| CC(N)CCCC(C)(C)O (configuration not stated) | 0 (no) |
| CC(C)(CO)[C@@H](O)C(=O)NCCCO | 0 (no) |
| CC(=O)c1ccc(S(=O)(=O)NC(=O)NC2CCCCC2)cc1 | 0 (no) |
| CC(=O)Nc1c(I)c(NC(C)=O)c(I)c(C(=O)O)c1I | 0 (no) |
| Cc1ccc(Cl)c(Nc2ccccc2C(=O)O)c1Cl | 0 (no) |
| Nc1c[n+](N2CCOCC2)no1 | 0 (no) |
| O=C1CC2(CCCC2)CC(=O)N1 | 0 (no) |
| CN=C(N)NC(=O)Nc1c(C)cccc1C | 0 (no) |
| Cc1ncc(CO)c(CO)c1O | 0 (no) |
| O=C(CCCN1CCC2(CC1)C(=O)NCN2c1ccccc1)c1ccc(F)cc1 | 0 (no) |
| Cc1ncc([N+](=O)[O-])n1CC(O)CCl (configuration not stated) | 0 (no) |
| O=C(O)c1c(O)c(-c2ccccc2)nc2ccccc12 | 0 (no) |
| CC(NC(C)(C)C)C(=O)c1cccc(Cl)c1 (configuration not stated) | 0 (no) |
| CN1CCC(O)(c2ccc(F)cc2)C(C(=O)c2ccc(F)cc2)C1 (configuration not stated) | 0 (no) |
| CC1CC(OC(=O)c2ccccc2O)CC(C)(C)C1 (configuration not stated) | 0 (no) |
| CC(=O)N/N=C/c1ccc([N+](=O)[O-])o1 | 0 (no) |
| COc1ccc2cccc(CCNC(C)=O)c2c1 | 0 (no) |
| COc1ccc(CCN(C)CCCN2CCc3cc(OC)c(OC)cc3CC2=O)cc1OC | 0 (no) |

* * *

# System: PC15
# Test Name: qHTS profiling for inhibitors of Plasmodium falciparum proliferation (AID 504749); note: nearly all actives have a fitted effect of over 60% in size
# Assay Setup: P. falciparum in erythrocytes, SYBR Green DNA, 72 h; series mostly up to 28.7 µM
Records with an inconclusive call do not appear. Active and inactive are the calls of the source. Calls follow the shape of the dose curve; as a rule, active = well fitted inhibition curve with a large enough effect; inconclusive = small, poorly fitted or top-dose-only effect; inactive = flat fitted curve, though single readings scatter.
Labels: 1 for active, -1 for inactive

| Molecule | Category Label |
| --- | --- |
| CC(C)c1cccc(C(C)C)c1O | -1 |
| CN1C[C@H](C(=O)N[C@]2(C)O[C@@]3(O)[C@@H]4CCCN4C(=O)[C@H](Cc4ccccc4)N3C2=O)C=C2c3cccc4[nH]cc(c34)C[C@H]21 | 1 |
| CCCCCCC(=O)CCCCCC/C=C/C[C@@H](O)[C@H](O)[C@@](N)(CO)C(=O)O | -1 |
| CCCCCCCCCC(=O)O[C@H]1CC[C@H]2[C@@H]3CCC4=CC(=O)CC[C@@H]4[C@H]3CC[C@]12C | -1 |
| Clc1cccc(SC2CCNCC2)n1 | -1 |
| C[C@](O)(CS(=O)(=O)c1ccc(F)cc1)C(=O)Nc1ccc(C#N)c(C(F)(F)F)c1 | -1 |
| CC(C)(C)NCC(O)c1cc(Cl)c(N)c(C(F)(F)F)c1 (configuration not stated) | 1 |
| O=C(N/N=C/c1ccc([N+](=O)[O-])o1)c1cc([N+](=O)[O-])cc([N+](=O)[O-])c1O | -1 |
| NCCc1ccc(O)cc1 | -1 |
| CNC(C)(C)Cc1ccccc1 | -1 |
| CCOP(=S)(OCC)Oc1ccc2c(C)c(Cl)c(=O)oc2c1 | -1 |
| O=P1(N(CCCl)CCCl)NCCCO1 (configuration not stated) | -1 |
| O=C1Nc2ccc(Cl)cc2C(c2ccccc2)=NC1O (configuration not stated) | -1 |
| CCOC(=O)CC(SP(=S)(OC)OC)C(=O)OCC (configuration not stated) | -1 |
| CC(C)=CC1C(C(=O)OCN2C(=O)C3=C(CCCC3)C2=O)C1(C)C (configuration not stated) | -1 |
| Clc1ccc2c(c1)C(c1ccccc1)=NCc1nncn1-2 | -1 |
| COC(=O)C(c1ccccc1)C1CCCCN1 (configuration not stated) | -1 |
| COP(=S)(OC)Oc1ccc(SC)c(C)c1 | -1 |
| Cc1ncsc1CCCl | -1 |
| NNc1ccccc1 | -1 |
| Oc1ccc(Cl)cc1 | -1 |
| O=C(Nc1ccc(Br)cc1)c1cc(Br)cc(Br)c1O | -1 |

* * *

# Test Name: VSVG counterscreen qHTS to identify inhibitors of SARS-CoV-2 cell entry (AID 1645847); note: nearly all actives have a fitted effect of over 65% in size
# Assay Setup: VSV-G pseudotyped particle entry, luciferase; series mostly up to 57.2 µM
Inconclusive results are not listed. Activity calls are given as the source filed them. Calls come from the whole dose curve.
Labels: active, inactive

| Compound | Category Label |
| --- | --- |
| C[n+]1c2cc(N)ccc2cc2ccc(N)cc21 (tested in a mixture with another compound) | active |
| CC(C)c1cccc(C(C)C)c1O | inactive |
| Cc1c(C)c2c(c(C)c1O)CCC(C)(COc1ccc(CC3SC(=O)NC3=O)cc1)O2 (stereo not drawn) | active |
| O=C1CN(/N=C/c2ccc([N+](=O)[O-])o2)C(=O)N1 | active |
| Cc1ccc(Nc2nccc(N(C)c3ccc4c(C)n(C)nc4c3)n2)cc1S(N)(=O)=O | active |
| CCN(CC)C(C)CN1c2ccccc2Sc2ccccc21 (stereo not drawn) | active |
| Nc1ccn([C@@H]2O[C@H](CO)[C@@H](O)C2O)c(=O)n1 (stereo partly drawn) | active |
| CCOc1ccc2nc3cc(N)ccc3c(N)c2c1 | active |
